- Assay Explanation: Selectivity ratio of inhibition for PDE3A (M1 to Q1141 residues) (unknown origin) by RF-MS assay to inhibition for PDE3B (M1 to E1112 residues) (unknown origin) by RF-MS assay
Measured Property: Selectivity ratio
// return a plain number; no unit text

Challenge: Entry COCC(C)NC(=O)c1cc(NC(=O)c2cc(OC)c3ccc(OC)cc3n2)cc(B(O)O)c1 (stereo not drawn) has what Selectivity ratio?
Response given: 46

Challenge: Follow-up entry: `CNC(=O)[C@@H](NC(=O)c1cc(NC(=O)c2cc(C)c3ccccc3n2)cc(B(O)O)c1)C1CCCCC1`
Response given: 1.1

Challenge: Follow-up entry: `CNC(=O)[C@@H](NC(=O)c1cc(NC(=O)c2cc(F)cc3nccnc23)cc(B(O)O)c1)C1CCCCC1`
Response given: 1

Challenge: Follow-up entry: `CNC(=O)[C@@H](NC(=O)c1cc(NC(=O)c2ccc3ccccc3c2)cc(B(O)O)c1)C1CCCCC1`
Response given: 0.4

Challenge: Follow-up entry: `CNC(=O)[C@@H](NC(=O)c1cc(NC(=O)c2ccc3ncccc3n2)cc(B(O)O)c1)C1CCCCC1`
Response given: 0.6

Challenge: Follow-up entry: CNC(=O)[C@H](NC(=O)c1cc(NC(=O)C(C)Oc2c(C)cccc2C)cc(B(O)O)c1)C1CCCCC1 (stereo partly drawn)
Response given: 4.7

Challenge: Follow-up entry: `COc1ccc2c(OC)cc(C(=O)Nc3cc(B(O)O)cc(C(=O)N4CC(OC5CC5)C4)c3)nc2c1`
Response given: 75

Challenge: Follow-up entry: `COc1ccc2c(OC)cc(C(=O)Nc3cc(B(O)O)cc(C(=O)N4Cc5ccncc5C4)c3)nc2c1`
Response given: 97
